# System: A549: human lung cancer cell lines
# ASSAY_TEXT: WST-1 cell viability, A549
# Format: cell-based
# EXPERIMENTAL_CONDITIONS: A549 (lung) cancer cell line, WST-1
MEASUREMENT_NAME: IC50

Data request: State its IC50: CCCCCCCC/C=C/CCCc1cc(=O)c2ccccc2[nH]1
Data returned: 14.8 µM

###

# Tested on: WI-38: human lung fibroblast cell lines
# ASSAY_TEXT: WST-1 cell viability, WI-38
# Format: cell-based
# EXPERIMENTAL_CONDITIONS: WI-38, non-cancer cell line
Entries annotated with measured IC50

# MOLECULE, OBSERVED_MEASUREMENT
measured = [
    ("COc1cccc2c1C(=O)c1c(O)c3c(c(O)c1C2=O)C[C@@](O)(C(=O)CO)C[C@@H]3O[C@H]1C[C@H](N)[C@H](O)[C@H](C)O1 [DOX, Doxorubicin, reference compound]", "1.9 µM"),
]

We next turn to a different molecule, shown below.
Data request: Answer with reported IC50 of CCCCCCCC/C=C/CCCc1cc(=O)c2ccccc2[nH]1 [JH62]
Data returned: 44.1 µM

###

# System: U87: human primary glioblastoma cell lines
# ASSAY_TEXT: WST-1 cell viability, U87
# Format: cell-based
# EXPERIMENTAL_CONDITIONS: U87 (glioblastoma) cancer cell line
Measured pIC50 values are reported for all entries that follow.
When answering, recall that pIC50 equals minus log10 of the concentration in mol/L, and write that number alone.

# COMPOUND, pIC50
data = [
    ("COc1cccc2c1C(=O)c1c(O)c3c(c(O)c1C2=O)C[C@@](O)(C(=O)CO)C[C@@H]3O[C@H]1C[C@H](N)[C@H](O)[C@H](C)O1 [DOX, Doxorubicin, reference compound]", 5.85),
]

Switching to the query record.
Data request: # return recorded pIC50 for input CCCCCCCC/C=C/CCCc1cc(=O)c2ccccc2[nH]1 [JH62]
Data returned: 5.00

###

# System: HeLa: human cervical cancer cell lines
# ASSAY_TEXT: WST-1 cell viability, HeLa
# Assay type: cell-based
# EXPERIMENTAL_CONDITIONS: HeLa (cervical) cancer cell line
MEASUREMENT_NAME: IC50 (µM)
Numbers only; they are read as µM.

# COMPOUND, SYSTEM_UNDER_TEST, UNITS, IC50
records = [
    ("CCCCCCCC/C=C/CCCc1cc(=O)c2ccccc2[nH]1", "HeLa: human cervical cancer cell lines", "µM", 13.6),
]

Next, consider the following compound.
Data request: Would you please give the reported IC50 of COc1cccc2c1C(=O)c1c(O)c3c(c(O)c1C2=O)C[C@@](O)(C(=O)CO)C[C@@H]3O[C@H]1C[C@H](N)[C@H](O)[C@H](C)O1 [DOX, Doxorubicin, reference compound] with HeLa: human cervical cancer cell lines?
Data returned: 0.7
